system: TDF; assay: H1.0 immunofluorescence intensity relative to DMSO (% of DMSO); higher = stronger H1.0 induction, active = 120 or more; conditions: concentration: 10 µM; 24 h;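 further: TDF is a line of transformed human dermal fibroblasts of mesenchymal origin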
Measured metric: H1.0 immunofluorescence intensity

Prompt: // returns reported H1.0 immunofluorescence intensity for input O=C1CCC(N2C(=O)c3ccccc3C2=O)C(=O)N1 (racemic)
Completion: 99.5 (inactive)

Prompt: So what does the record say about H1.0 immunofluorescence intensity for CC1=C(C)C(=O)C(C(CCCCCC(=O)O)c2ccccc2)=C(C)C1=O (stereo unspecified) [Seratrodast] ?
Completion: 99.3 (inactive)

Prompt: I'd like to know its H1.0 immunofluorescence intensity. The molecule in question is COc1ccc2ccc(=O)oc2c1CC=C(C)C [Osthole]
Completion: 103 (inactive)

Prompt: Using the record for C[n+]1cccc(C(=O)O)c1.[Cl-] , report its H1.0 immunofluorescence intensity.
Completion: 101 (inactive)

Prompt: Item under review: CCCCCCCCCCCC=CCC=CCCCC(=O)O [5(Z), 8(Z)-Eicosadienoic acid] . Reported H1.0 immunofluorescence intensity?
Completion: 99.9 (inactive)

Prompt: # H1.0 immunofluorescence intensity lookup, item CCCCCC=CCC=CCCCCCCCC(N)=O [Linoleamide]
Completion: 99.6 (inactive)

----------
tested on: TDF; assay: H1.0 immunofluorescence intensity relative to DMSO (% of DMSO); higher = stronger H1.0 induction, active = 120 or more; details: concentration: 10 µM; 24 h;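 further: TDF is a line of transformed human dermal fibroblasts of mesenchymal origin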
Response enum: YES (active), NO (inactive)

Nc1ccc(S(=O)(=O)Nc2ccnn2-c2ccccc2)cc1	NO

Prompt: Tell me the assay call for O=C1CCc2ccc(OCCCCN3CCN(c4cccc(Cl)c4Cl)CC3)cc2N1 please.
Completion: NO

Prompt: Hi, sorry to bother you, what did the test record for CC(C)NCC(O)c1ccc(NS(C)(=O)=O)cc1.Cl (racemic) ?
Completion: NO

Prompt: What outcome does the record of this test show for CCCCCCC=CCCCCCCCC(=O)O [9(E)-Hexadecenoic acid] ?
Completion: NO

Prompt: Recorded call for CC(=O)OCC1OC([S-])C(OC(C)=O)C(OC(C)=O)C1OC(C)=O.CCP(CC)CC.[Au+] (configuration not stated) ?
Completion: YES

Prompt: Status in this test for CC(C)C(CO)Nc1nc(Nc2cccc(Cl)c2)c2ncn(C(C)C)c2n1 (configuration not stated) ?
Completion: NO

----------
Measured H1.0 immunofluorescence intensity of individual entries
test system: TDF; assay: H1.0 immunofluorescence intensity relative to DMSO (% of DMSO); higher = stronger H1.0 induction, active = 120 or more; details: concentration: 10 µM; 24 h;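 further: TDF is a line of transformed human dermal fibroblasts of mesenchymal origin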
Lab note: record just the number, no unit beside it.

CN1C2CCC1CC(OC(=O)c1c[nH]c3ccccc13)C2 (stereo not drawn) [Tropisetron]	101

Prompt: Report H1.0 immunofluorescence intensity for Cl.NC(N)=NC(=O)c1nc(Cl)c(N)nc1N [Amiloride hydrochloride] please.
Completion: 97.6

Prompt: Sample NCC(O)(CS(=O)(=O)O)c1ccc(Cl)cc1 (stereo not drawn) [2-Hydroxysaclofen] — what was its H1.0 immunofluorescence intensity?
Completion: 97.7

----------
test system: TDF; assay: H1.0 immunofluorescence intensity relative to DMSO (% of DMSO); higher = stronger H1.0 induction, active = 120 or more; conditions: concentration: 10 µM; 24 h;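 further: TDF is a line of transformed human dermal fibroblasts of mesenchymal origin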
Measured metric: H1.0 immunofluorescence intensity
Respond numerically, and do not add a unit to the figure.

Cl.OCC1NCC(O)C(O)C1O (centres undefined) [1-Deoxynojirimycin hydrochloride]	85.2
NC(=O)C1=CN(C2OC(COP(=O)([O-])OP(=O)([O-])OCC3OC(n4cnc5c(N)ncnc54)C(OP(=O)([O-])[O-])C3O)C(O)C2O)C=CC1.[Na+].[Na+].[Na+].[Na+] (centres undefined) [NADPH tetrasodium]	96.9
CCCCCC=CCC=CCC=CCC=CCCCCCC(=O)O [Adrenic acid (22:4 n-6)]	108
Nc1nc(=O)c2ncn(CCC(CO)CO)c2[nH]1 [Penciclovir]	90.4

Prompt: Suppose we examine the molecule O=C(Nc1cccc(C(=O)Nc2ccc(S(=O)(=O)[O-])c3cc(S(=O)(=O)[O-])cc(S(=O)(=O)[O-])c23)c1)Nc1cccc(C(=O)Nc2ccc(S(=O)(=O)[O-])c3cc(S(=O)(=O)[O-])cc(S(=O)(=O)[O-])c23)c1.[Na+].[Na+].[Na+].[Na+].[Na+].[Na+] ; what H1.0 immunofluorescence intensity value has been reported?
Completion: 93.4

Prompt: Requested field: H1.0 immunofluorescence intensity. Item: CC(=O)OCC1=C(C(=O)[O-])N2C(=O)C(NC(=O)CSc3ccncc3)C2SC1.[Na+] (centres undefined) [Cephapirin sodium]
Completion: 93.8

Prompt: # lookup: H1.0 immunofluorescence intensity of CC(C)NCC(O)c1ccc(NS(C)(=O)=O)cc1.Cl (centres undefined) [Sotalol.HCl]
Completion: 88.1

Prompt: Entry CNCCCC1c2ccccc2C=Cc2ccccc21.Cl [Protriptyline hydrochloride] : reported H1.0 immunofluorescence intensity = ?
Completion: 109

Prompt: Tell me the measured H1.0 immunofluorescence intensity of O=c1c(O)c(-c2ccc(O)cc2O)oc2cc(O)cc(O)c12 [Morin] , please.
Completion: 89.4

src = the supplement of paper PMC7156485
